# Assay Overview: In Vivo Determination of Kp,uu,brain in Mice
# Set-up: species or system mouse
# Experimental Parameters: male, C57Bl/6, mouse, brain, po, 10 mg/kg, mouse, 10 mg/kg oral, 2 h; using fu,brain 0.0181; read-out: Unbound brain conc. (Cu,brain) ± SD
Assay Readout: concentration at 2 h

>>> experimental_value("Nc1nc(Oc2c(F)cc(F)cc2F)cc(C(F)(F)F)n1")
"55.4 nM"

====

# Assay Overview: In Vivo Determination of Kp,uu,brain in Mice
# Set-up: species or system mouse
# Experimental Parameters: male, C57Bl/6, mouse, brain, po, 3 mg/kg, mouse, 3 mg/kg oral, 2 h; read-out: Total brain conc. (Ctotal,brain) ± SD
# Description: In Vivo Determination of Kp,uu,brain in Mice Unbound brain-to-plasma partition coefficient (Kp,uu,brain) is one of the key pharmacokinetic parameter for evaluating a compound's ability to cross the blood-brain barrier (BBB). It is typically measured in pre-clinical species using the following methodology. […] Pharmacokinetic sampling: Plasma and brain samples obtained are analyzed for Example 2 using an LC-MS/MS method (Q2 Solutions, Indianapolis, IN, USA). […]
Assay Readout: concentration at 2 h (nM)

>>> experimental_value("Nc1nc(Oc2c(F)cc(F)cc2F)cc(C(F)(F)F)n1")
972

====

# Assay Overview: In Vivo Determination of Kp,uu,brain in Mice
# Parameters: species or system mouse
# Experimental Parameters: male, C57Bl/6, mouse, plasma, po, 3 mg/kg, mouse, 3 mg/kg oral, 2 h; read-out: Total plasma conc. (Ctotal,plasma) ± SD
# Description: In Vivo Determination of Kp,uu,brain in Mice Unbound brain-to-plasma partition coefficient (Kp,uu,brain) is one of the key pharmacokinetic parameter for evaluating a compound's ability to cross the blood-brain barrier (BBB). It is typically measured in pre-clinical species using the following methodology. […] Pharmacokinetic sampling: Plasma and brain samples obtained are analyzed for Example 2 using an LC-MS/MS method (Q2 Solutions, Indianapolis, IN, USA). […]
Assay Readout: concentration at 2 h (nM)

>>> experimental_value("Nc1nc(Oc2c(F)cc(F)cc2F)cc(C(F)(F)F)n1")
809

====

# Assay Overview: In Vivo Determination of Kp,uu,brain in Mice
# Set-up: species or system mouse
# Experimental Parameters: male, C57Bl/6, brain/plasma; mouse, 30 mg/kg oral, 2 h
Assay Readout: Kp uu at 2 h

>>> experimental_value("Nc1nc(Oc2c(F)cc(F)cc2F)cc(C(F)(F)F)n1 [Example 2]")
0.601

====

# Assay Overview: In Vivo Determination of Kp,uu,brain in Mice
# Set-up: species or system mouse
# Experimental Parameters: male, C57Bl/6, mouse, brain, po, 10 mg/kg, mouse, 10 mg/kg oral, 2 h; read-out: Total brain conc. (Ctotal,brain) ± SD
# Method: In Vivo Determination of Kp,uu,brain in Mice Unbound brain-to-plasma partition coefficient (Kp,uu,brain) is one of the key pharmacokinetic parameter for evaluating a compound's ability to cross the blood-brain barrier (BBB). It is typically measured in pre-clinical species using the following methodology. […] Pharmacokinetic sampling: Plasma and brain samples obtained are analyzed for Example 2 using an LC-MS/MS method (Q2 Solutions, Indianapolis, IN, USA). […]
Assay Readout: concentration at 2 h (µM)

>>> experimental_value("Nc1nc(Oc2c(F)cc(F)cc2F)cc(C(F)(F)F)n1 [Example 2]")
3.9
